src = ChEMBL document CHEMBL3286116

System: Nannizzia gypsea
PROTOCOL NOTES: Antifungal activity against Microsporum gypseum PMC 7331 after 72 hrs by CLSI broth microdilution method
Assay type: functional
CONDITION INFO: PMC 7331, 72 h
PROPERTY LABEL: MIC80 (µg/mL)
A number alone suffices; assume µg/mL.

Recorded results for 9 compounds are shown here.
- COMPOUND: "O=C(O[C@H](Cn1ccnc1)c1ccc(Cl)cc1)N1CCN(c2ccc(Cl)cc2)CC1"
  DATA VALUE: 1
- COMPOUND: "O=C(OC(Cn1ccnc1)c1ccc(Cl)cc1)N1CCN(c2ccc(Cl)cc2)CC1 (stereo not given)"
  DATA VALUE: 2
- COMPOUND: "O=C(OC(Cn1ccnc1)c1ccc(Cl)cc1)N1CCN(c2ccc([N+](=O)[O-])cc2)CC1 (stereo not given)"
  DATA VALUE: 16
- COMPOUND: "O=C(Nc1ccc(N2CCN(c3ccc(Cl)cc3)CC2)cc1)OC(Cn1ccnc1)c1ccc(F)cc1 (stereo not given)"
  DATA VALUE: 8
- COMPOUND: "O=C(OC(Cn1ccnc1)c1ccc(F)cc1)N1CCN(c2ccc(Cl)cc2)CC1 (stereo not given)"
  DATA VALUE: 4
- COMPOUND: "O=C(OC(Cn1ccnc1)c1ccc(F)cc1)N1CCN(C(=O)c2ccco2)CC1 (stereo not given)"
  DATA VALUE: 128
- COMPOUND: "O=C(OC(Cn1ccnc1)c1ccc(F)cc1)N1CCN(c2ncccc2[N+](=O)[O-])CC1 (stereo not given)"
  DATA VALUE: 32
- COMPOUND: "CCS(=O)(=O)N1CCN(c2ccc(NC(=O)OC(Cn3ccnc3)c3ccc(F)cc3)cc2)CC1 (stereo not given)"
  DATA VALUE: 128
- COMPOUND: "O=C(OC(Cn1ccnc1)c1ccc(Cl)cc1)N1CCN(C(=O)c2ccco2)CC1 (stereo not given)"
  DATA VALUE: 128

Ask: I'd like to know its MIC80. The compound in question is O=C(OC(Cn1ccnc1)c1ccc(F)cc1)N1CCN(c2ccc([N+](=O)[O-])cc2)CC1 (stereo not given)
Result: 32
